Recorded values, source ChEMBL document CHEMBL1909570.

Test system: Streptococcus
test: Antibacterial activity against Streptococcus gamma 32206 by CLSI agar microdilution method
Type: functional
property-measured: MIC (µg/mL)
Entry rule: numbers only, all in µg/mL.

QUERY: Return value of MIC for input CN[C@H](CC(C)C)C(=O)N[C@H]1C(=O)N[C@@H](CC(N)=O)C(=O)N[C@H]2C(=O)N[C@H]3C(=O)N[C@H](C(=O)N[C@@H](C(=O)O)c4cc(O)cc(O)c4-c4cc3ccc4O)[C@H](O[C@H]3C[C@](C)(N)[C@H](O)[C@H](C)O3)c3ccc(c(Cl)c3)Oc3cc2cc(c3O[C@@H]2O[C@H](CO)[C@@H](O)[C@H](O)[C@H]2O[C@H]2C[C@](C)(NCc3ccccc3Cl)[C@H](O)[C@H](C)O2)Oc2ccc(cc2Cl)[C@H]1O , no commentary.
RESULT: 1.56

###

Test system: Streptococcus
test: Antibacterial activity against Streptococcus gamma 32206 by CLSI agar microdilution method
Assay type: functional
property-measured: MIC (µg/mL)
Your answer is read as µg/mL, so omit the unit and give the number.

Please review the entries below; each comes with its answer.
>>> val("CCCCCCCCCN[C@@]1(C)C[C@H](O[C@H]2[C@H](Oc3c4cc5cc3Oc3ccc(cc3Cl)[C@@H](O[C@H]3C[C@](C)(N)[C@H](O)[C@H](C)O3)[C@@H]3NC(=O)[C@H](NC(=O)[C@@H]5NC(=O)[C@H](CC(N)=O)NC(=O)[C@H](NC(=O)[C@@H](CC(C)C)NC)[C@H](O)c5ccc(c(Cl)c5)O4)c4ccc(O)c(c4)-c4c(O)cc(O)cc4[C@H](C(=O)O)NC3=O)O[C@H](CO)[C@@H](O)[C@@H]2O)O[C@@H](C)[C@H]1O")
1.56
>>> val("CN[C@H](CC(C)C)C(=O)N[C@H]1C(=O)N[C@@H](CC(N)=O)C(=O)N[C@H]2C(=O)N[C@H]3C(=O)N[C@H](C(=O)N[C@@H](C(=O)O)c4cc(O)cc(O)c4-c4cc3ccc4O)[C@H](O[C@H]3C[C@](C)(N)[C@H](O)[C@H](C)O3)c3ccc(c(Cl)c3)Oc3cc2cc(c3O[C@@H]2O[C@H](CO)[C@@H](O)[C@H](O)[C@H]2O[C@H]2C[C@](C)(N)[C@H](O)[C@H](C)O2)Oc2ccc(cc2Cl)[C@H]1O")
0.78
>>> val("CCCCCCCCCCNCCN[C@@]1(C)C[C@H](O[C@H]2[C@H](Oc3c4cc5cc3Oc3ccc(cc3Cl)[C@@H](O[C@H]3C[C@](C)(N)[C@H](O)[C@H](C)O3)[C@@H]3NC(=O)[C@H](NC(=O)[C@@H]5NC(=O)[C@H](CC(N)=O)NC(=O)[C@H](NC(=O)[C@@H](CC(C)C)NC)[C@H](O)c5ccc(c(Cl)c5)O4)c4ccc(O)c(c4)-c4c(O)cc(O)cc4[C@H](C(=O)O)NC3=O)O[C@H](CO)[C@@H](O)[C@@H]2O)O[C@@H](C)[C@H]1O")
3.13
>>> val("CN[C@H](CC(C)C)C(=O)N[C@H]1C(=O)N[C@@H](CC(N)=O)C(=O)N[C@H]2C(=O)N[C@H]3C(=O)N[C@H](C(=O)N[C@@H](C(=O)O)c4cc(O)cc(O)c4-c4cc3ccc4O)[C@H](O[C@H]3C[C@](C)(N)[C@H](O)[C@H](C)O3)c3ccc(c(Cl)c3)Oc3cc2cc(c3O[C@@H]2O[C@H](CO)[C@@H](O)[C@H](O)[C@H]2O[C@H]2C[C@](C)(NCc3ccc(-c4ccc(Cl)cc4)cc3)[C@H](O)[C@H](C)O2)Oc2ccc(cc2Cl)[C@H]1O")
3.13
>>> val("CCCCCCOc1ccc(CN[C@@]2(C)C[C@H](O[C@H]3[C@H](Oc4c5cc6cc4Oc4ccc(cc4Cl)[C@@H](O[C@H]4C[C@](C)(N)[C@H](O)[C@H](C)O4)[C@@H]4NC(=O)[C@H](NC(=O)[C@@H]6NC(=O)[C@H](CC(N)=O)NC(=O)[C@H](NC(=O)[C@@H](CC(C)C)NC)[C@H](O)c6ccc(c(Cl)c6)O5)c5ccc(O)c(c5)-c5c(O)cc(O)cc5[C@H](C(=O)O)NC4=O)O[C@H](CO)[C@@H](O)[C@@H]3O)O[C@@H](C)[C@H]2O)cc1")
3.13

QUERY: Return MIC for the following molecule: CN[C@H](CC(C)C)C(=O)N[C@H]1C(=O)N[C@@H](CC(N)=O)C(=O)N[C@H]2C(=O)N[C@H]3C(=O)N[C@H](C(=O)N[C@@H](C(=O)O)c4cc(O)cc(O)c4-c4cc3ccc4O)[C@H](O[C@H]3C[C@](C)(N)[C@H](O)[C@H](C)O3)c3ccc(c(Cl)c3)Oc3cc2cc(c3O[C@@H]2O[C@H](CO)[C@@H](O)[C@H](O)[C@H]2O[C@H]2C[C@](C)(NCc3ccc(Sc4ccccc4)cc3)[C@H](O)[C@H](C)O2)Oc2ccc(cc2Cl)[C@H]1O
RESULT: 3.13

QUERY: Give the value of MIC reported for the following: CN[C@H](CC(C)C)C(=O)N[C@H]1C(=O)N[C@@H](CC(N)=O)C(=O)N[C@H]2C(=O)N[C@H]3C(=O)N[C@H](C(=O)N[C@@H](C(=O)O)c4cc(O)cc(O)c4-c4cc3ccc4O)[C@H](O[C@H]3C[C@](C)(N)[C@H](O)[C@H](C)O3)c3ccc(c(Cl)c3)Oc3cc2cc(c3O[C@@H]2O[C@H](CO)[C@@H](O)[C@H](O)[C@H]2O[C@H]2C[C@](C)(NCc3cccs3)[C@H](O)[C@H](C)O2)Oc2ccc(cc2Cl)[C@H]1O
RESULT: 25

QUERY: Report MIC for CCCCCCCCCOc1ccc(CN[C@@]2(C)C[C@H](O[C@H]3[C@H](Oc4c5cc6cc4Oc4ccc(cc4Cl)[C@@H](O[C@H]4C[C@](C)(N)[C@H](O)[C@H](C)O4)[C@@H]4NC(=O)[C@H](NC(=O)[C@@H]6NC(=O)[C@H](CC(N)=O)NC(=O)[C@H](NC(=O)[C@@H](CC(C)C)NC)[C@H](O)c6ccc(c(Cl)c6)O5)c5ccc(O)c(c5)-c5c(O)cc(O)cc5[C@H](C(=O)O)NC4=O)O[C@H](CO)[C@@H](O)[C@@H]3O)O[C@@H](C)[C@H]2O)cc1
RESULT: 12.5

QUERY: Quickly give me recorded MIC for CN[C@H](CC(C)C)C(=O)N[C@H]1C(=O)N[C@@H](CC(N)=O)C(=O)N[C@H]2C(=O)N[C@H]3C(=O)N[C@H](C(=O)N[C@@H](C(=O)O)c4cc(O)cc(O)c4-c4cc3ccc4O)[C@H](O[C@H]3C[C@](C)(N)[C@H](O)[C@H](C)O3)c3ccc(c(Cl)c3)Oc3cc2cc(c3O[C@@H]2O[C@H](CO)[C@@H](O)[C@H](O)[C@H]2O[C@H]2C[C@](C)(NCc3ccc(OC)cc3)[C@H](O)[C@H](C)O2)Oc2ccc(cc2Cl)[C@H]1O
RESULT: 1.56
